Test: Cytotoxicity against human FHC cells assessed as cell growth inhibition by MTT assay
Assay type: toxicity, cell-based
assay.endpoint: IC50

molecule	IC50
CCN1CCN(CCCOc2cc3nccc(Oc4c(F)cc(NC(=O)NN5C(=O)CS[C@H]5c5ccc(F)cc5F)cc4F)c3cc2OC)CC1	> 10 µM
CCN1CCN(CCCOc2cc3nccc(Oc4c(F)cc(NC(=O)NN5C(=O)CSC5c5ccccc5F)cc4F)c3cc2OC)CC1 (stereo not drawn)	> 10 µM

// next item, IC50 requested
The measured IC50 associated with CCN1CCN(CCCOc2cc3nccc(Oc4c(F)cc(NC(=O)NN5C(=O)CSC5c5c(F)cccc5F)cc4F)c3cc2OC)CC1 (stereo not drawn) reads > 10 µM

---

Quick reference for pIC50 among some compounds
System: HCT-116
Experiment: cells
Details: Homo sapiens
Interpret pIC50 as the negative base-10 log of the concentration measured in mol/L.

compound	study.target	pIC50
CCN(CC)CCCOc1cc2nccc(Oc3ccc(C(=O)NN4C(=O)CSC4c4c(F)cccc4F)cc3)c2cc1OC (stereo not drawn)	HCT-116	5.49

Tested on HCT-116, the item CCN(CC)CCCOc1cc2nccc(Oc3ccc(CC(=O)NN4C(=O)CSC4c4c(F)cccc4F)cc3)c2cc1OC (stereo not drawn) showed pIC50 equal to 5.11

Tested on HCT-116, the item CNC(=O)c1cc(Oc2ccc(NC(=O)Nc3ccc(Cl)c(C(F)(F)F)c3)c(F)c2)ccn1 [REGORAFENIB] showed pIC50 equal to 5.46
